Measured pIC50 on Coagulation factor XI (Homo sapiens) follows.
Sequence (P03951 19-387 limits assumed): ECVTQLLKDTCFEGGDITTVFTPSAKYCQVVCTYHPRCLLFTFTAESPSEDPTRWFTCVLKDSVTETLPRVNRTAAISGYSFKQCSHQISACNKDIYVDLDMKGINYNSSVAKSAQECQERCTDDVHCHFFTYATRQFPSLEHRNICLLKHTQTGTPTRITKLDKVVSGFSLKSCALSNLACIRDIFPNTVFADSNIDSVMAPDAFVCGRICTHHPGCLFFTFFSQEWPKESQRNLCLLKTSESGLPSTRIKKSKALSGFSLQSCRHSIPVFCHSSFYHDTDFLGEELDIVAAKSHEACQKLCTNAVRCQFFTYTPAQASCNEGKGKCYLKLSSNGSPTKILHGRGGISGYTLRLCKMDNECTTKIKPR
Sequence (P03951 388-625 limits assumed): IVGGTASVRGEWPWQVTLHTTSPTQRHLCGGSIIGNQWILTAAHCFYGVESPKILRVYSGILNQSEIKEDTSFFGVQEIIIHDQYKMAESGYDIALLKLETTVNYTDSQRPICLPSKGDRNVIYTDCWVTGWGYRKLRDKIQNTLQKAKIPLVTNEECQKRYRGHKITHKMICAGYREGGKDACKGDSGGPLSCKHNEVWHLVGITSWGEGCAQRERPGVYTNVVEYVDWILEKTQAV
# reply with the number alone; pIC50 is -log10 of concentration in mol/L

[[record]]
chemicalstructure = "N=C(N)NCCCCNC(=O)Oc1cc(Br)c(O)c(Br)c1CC(N)=O"
assayedsystem = "Coagulation factor XI (Homo sapiens)"
valueobserved = 4.57


Let us examine a further case.
Return pIC50 measured with Coagulation factor XI (Homo sapiens) given this compound: N=C(N)NCCCCNC(=O)Oc1c(Br)cc(O)c(CC(=O)O)c1Br
5.89

These data points were gathered from ChEMBL document CHEMBL1150765.
